Please go through the items and note down their MIC.
Tested on: Staphylococcus aureus
Assay: Antibacterial activity against aerobic Staphylococcus aureus X1.1 strain
Type: functional
Field: numeric (µg/mL). Do not append units.

Reported MIC of Nc1nc(/C(=N/OCCF)C(=O)N[C@@H]2C(=O)N3C(C(=O)O)=C(Sc4ncc([N+](=O)[O-])s4)CC[C@H]23)cs1 : 0.125

Reported MIC of CO/N=C(\C(=O)N[C@@H]1C(=O)N2C(C(=O)O)=C(Sc3ncc([N+](=O)[O-])s3)CC[C@H]12)c1csc(N)n1 : 0.125

Reported MIC of CO/N=C(\C(=O)N[C@@H]1C(=O)N2C(C(=O)O)=C(Sc3ncc(C#N)s3)CC[C@H]12)c1csc(N)n1 : 0.25

Reported MIC of CO/N=C(\C(=O)N[C@@H]1C(=O)N2C(C(=O)O)=C(Sc3ncc(S(C)(=O)=O)s3)CC[C@H]12)c1csc(N)n1 : 0.25

Reported MIC of CO[C@@]1(NC(=O)Cc2cccs2)C(=O)N2C(C(=O)O)=C(COC(N)=O)CS[C@@H]21 [CEFOXITIN] : 4

Reported MIC of CO/N=C(\C(=O)N[C@@H]1C(=O)N2C(C(=O)O)=C(Sc3ncc(C(F)(F)F)s3)CC[C@H]12)c1csc(N)n1 : 0.25

Reported MIC of CO[C@@]1(NC(=O)C2SC(=C(C(N)=O)C(=O)O)S2)C(=O)N2C(C(=O)O)=C(CSc3nnnn3C)CS[C@@H]21 (some centres not stated) [CEFOTETAN] : 8
